Origin of values: paper PMC7158045

Biological target: ZmDRIK1-R187-P492 (Zea mays, UniProt C0P4K9)
Construct: kinase domain, R187-P492
Sequence (C0P4K9 1-514): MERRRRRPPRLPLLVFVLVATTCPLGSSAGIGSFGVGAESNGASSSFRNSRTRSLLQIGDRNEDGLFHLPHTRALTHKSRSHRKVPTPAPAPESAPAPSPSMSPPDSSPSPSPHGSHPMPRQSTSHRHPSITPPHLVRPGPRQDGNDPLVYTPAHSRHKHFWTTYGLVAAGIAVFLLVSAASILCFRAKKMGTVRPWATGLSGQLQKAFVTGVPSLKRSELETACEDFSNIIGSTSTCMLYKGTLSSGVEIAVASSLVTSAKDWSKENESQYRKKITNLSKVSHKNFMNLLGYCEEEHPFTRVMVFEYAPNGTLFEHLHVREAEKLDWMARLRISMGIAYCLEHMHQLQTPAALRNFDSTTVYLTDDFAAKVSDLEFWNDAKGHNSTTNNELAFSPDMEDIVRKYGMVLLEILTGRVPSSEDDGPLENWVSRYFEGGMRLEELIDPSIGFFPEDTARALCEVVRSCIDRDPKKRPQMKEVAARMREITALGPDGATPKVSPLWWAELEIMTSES
Assay: biochemical
Details: read-out: dTm B, DSF, Boltzmann fit, 0.1% DMSO
endpoint: ΔTm at 10 µM (°C)

> print(dat)
                                   compound  experimental.value
1  Cc1c(Cn2c(C)nc3c(C(=O)O)cc(N4CCOCC4)cc32)cccc1C(F)(F)F [GSK2636771]               -0.37
2  O=C1NC(=O)/C(=C/c2ccc3nccc(-c4ccncc4)c3c2)S1 [GSK1059615]              -0.283
3  COc1cc2ncnc(Nc3ccc(O)c(Br)c3)c2cc1OC [WHI-P154]                1.76

A. COc1cc2c(N3CCN(C(=O)Nc4ccc(OC(C)C)cc4)CC3)ncnc2cc1OCCCN1CCCCC1 [Tandutinib (MLN518)]
B. N#Cc1ccc2[nH]c(O)c(-c3ccc(CN4CCOCC4)cn3)c2c1 [AZD1080]
I'd appreciate it if you could identify which of A and B has the greater ΔTm at 10 µM. Lab log: write the label of the selected item as the result. A
